The reader will find reported GI50 values listed item by item below.
- Test system: HOP-62 NSCLC
- run description: NCI tumour cell line growth inhibition, 48 h

compound | subject of test | GI50
N#CC1=C(N)Oc2cc3c(cc2C1c1cccs1)OCO3 (stereo not given) | HOP-62 NSCLC | 0.484 µM
COc1ccc(CN2C(=O)/C(=C\c3cc(OC)c(OC)c(OC)c3)c3cc(OC)ccc32)cc1 | HOP-62 NSCLC | 2.37 µM
CCc1ccc(-c2nnc(COc3ccc(-c4nc5ccc(C)cc5[nH]4)cc3OC)o2)cc1 | HOP-62 NSCLC | 2.44 µM
COc1ccc(C(=O)Cn2c(C(=O)c3ccc(OC)cc3)nc3ccccc32)cc1 | HOP-62 NSCLC | 5.46 µM
CC1=C(C)C(=O)c2c(c(C(=O)c3ccccc3)c3nc4ccccc4n3c2C)C1=O | HOP-62 NSCLC | 23.4 µM
Oc1ccc(C(c2ccccc2)(c2ccccc2)c2ccccc2)cc1 | HOP-62 NSCLC | 17.6 µM
CN(C)/[N+]([O-])=N/Oc1cc(Nc2cccc(C(=O)O)c2)c([N+](=O)[O-])cc1[N+](=O)[O-] | HOP-62 NSCLC | 32.2 µM
CC(C)C[C@H](NC(=O)[C@H](Cc1ccccc1)n1ccc(N2CCCCC2)cc1=O)B(O)O | HOP-62 NSCLC | 2.63 µM
COc1ccc(C(=O)/C=C/c2ccc(O)c(O)c2F)c(OC)c1 | HOP-62 NSCLC | 19.8 µM
Cn1c(C(N)=O)cc2c1-c1nc(Nc3ccccc3)ncc1CCC2 | HOP-62 NSCLC | 2.96 µM

###

- Tested on: SK-OV-3 ovarian
- run description: NCI tumour cell line growth inhibition, 48 h

molecule | TGI
Oc1cccc2c1NC1=C(CCC/C1=C\c1ccccc1)C2 | > 100 µM
CC(=O)OCC1OC(On2ccccc2=S)C(OC(C)=O)C(OC(C)=O)C1OC(C)=O (stereo unspecified) | > 100 µM
COc1cc2oc(=O)cc(C)c2cc1[N+](=O)[O-] | > 100 µM
COc1ccc(CN2C(=O)/C(=C\c3cc(OC)c(OC)c(OC)c3)c3cc(OC)ccc32)cc1 | 13.1 µM
NC(N)=NCCCC(N=c1c2ccccc2n(O)c2ccccc12)C(=O)O (stereo unspecified) | > 100 µM
CC/C(=N\NC(=O)c1cccnc1)c1ccc2c(c1)OCCO2 | > 100 µM
CCCCCC(CN1CCOCC1)C(=O)/C=C/c1ccccc1 (stereo unspecified) | 11.8 µM
CCOC(=N)CC(=O)Nc1ccc(Cl)cc1 | > 100 µM
O=C(NN=C1CCN(Cc2ccccc2)CC1)C(O)(c1ccccc1)c1ccccc1 | > 100 µM
CC(=O)N(C)OC(=O)CC(=O)c1ccccc1 | > 100 µM
CCOc1c2ccsc2c(OCC)c2ccsc12 | > 100 µM

###

- Test system: 786-0 renal
- run description: NCI tumour cell line growth inhibition, 48 h
Catalogue of TGI readings, one per entry.

compound | subject of test | TGI
OC1(c2ccccc2)CC2CCC(C1)N2CCc1ccccc1 (stereo not given) | 786-0 renal | > 100 µM
CC1C(c2ccc(F)cc2)c2cc3c(cc2OC1N1CCCC1)OCO3 (stereo not given) | 786-0 renal | > 100 µM
Cn1ccnc1C(=O)/C=C/c1ccc(CC(=O)Nc2ccc(Cl)cc2)cc1 | 786-0 renal | > 25 µM
CCCC1NC(=O)C(CC(C)C)NC(=O)c2cccc(n2)C(=O)NC(CC(C)C)C(=O)NC(CCC)C(=O)NC(C(=O)OC)CCCCNC1=O (stereo not given) | 786-0 renal | > 100 µM
C/C(=N/NC(=S)Nc1ccccc1Cl)c1ccccn1 | 786-0 renal | 15.8 µM
S=c1ssc2c3ssc(=S)c3n(Cc3ccccc3)c12 | 786-0 renal | > 100 µM
CC/C(=N\NC(=O)c1cccnc1)c1ccc2c(c1)OCCO2 | 786-0 renal | > 100 µM
COC(=O)/C=C/c1cc(O)c2c(c1)C(C(=O)OC)C(c1ccc(O)c(O)c1)O2 (stereo not given) | 786-0 renal | > 56.3 µM
COc1ccc(C(=O)Cn2c(C(=O)c3ccc(OC)cc3)nc3ccccc32)cc1 | 786-0 renal | > 100 µM
CCOC(=O)c1cc2cc(N(C(C)=O)C(C)=O)ccc2s1 | 786-0 renal | > 100 µM
